Test system: A. baumannii strain 98-37-09
Assay method text: AK assay 384-well format, Prestwick library screening
Format: cell-based, Acinetobacter baumannii
Test settings: Acinetobacter baumannii, 983709, 3 h, 50 μM final drug concentration; […]; read-out: AK-based Prestwick Library Screening Results, A. baumannii (fold increase in extracellular AK activity)
Where a name gives a salt, the structure may show the parent alone.
Please note: fold induction at 50 µM exactly at 1 is condition not met. Only values below 1 get condition met.

{"Compound": "C[C@@H]1C[C@@H]([C@H](O)CC2CC(=O)NC(=O)C2)C(=O)[C@@H](C)C1 [Cycloheximide]", "Class name": "condition not met"}
{"Compound": "CC1(C)NC(=O)N(c2ccc([N+](=O)[O-])c(C(F)(F)F)c2)C1=O [Nilutamide]", "Class name": "condition not met"}
{"Compound": "CN1[C@@H]2C[C@@H](OC(=O)[C@H](CO)c3ccccc3)C[C@H]1[C@@H]1O[C@@H]12 [Scopolamine hydrochloride]", "Class name": "condition not met"}
{"Compound": "CCC(=O)O[C@@](Cc1ccccc1)(c1ccccc1)[C@@H](C)CN(C)C [Levopropoxyphene napsylate]", "Class name": "condition met"}

Problem: Given O=C1C=C2C=C[C@@H]3C[C@@]2(O1)[C@H]1CCCCN31 [Securinine] , is recorded fold induction at 50 µM strictly lower than 1?
Solution: condition not met

Problem: Is 1 strictly greater than the compound's reported fold induction at 50 µM? compound: CCC(=O)OCC(=O)[C@@]1(OC(=O)CC)[C@H](C)C[C@H]2[C@H]3[C@H]([C@@H](O)C[C@@]21C)[C@@]1(C)C=CC(=O)C=C1C[C@H]3Cl [Alclometasone dipropionate]
Solution: condition met

Problem: Here's an entry: O=c1ccc2cc(O)c(O)cc2o1 [Esculetin] . Is its fold induction at 50 µM below 1?
Solution: condition not met

* * *

Test system: E. cloacae
Assay method text: AK assay 384-well format, Prestwick library screening
Format: cell-based, Enterobacter cloacae
Test settings: Enterobacter cloacae, 3 h, 50 μM final drug concentration; […]; read-out: AK-based Prestwick Library Screening Results, E. cloacae (fold increase in extracellular AK activity)
Measurement name: fold induction at 50 µM

Recorded results for 2 compounds are shown here.
{"Compound": "CC1(C)NC(=O)N(c2ccc([N+](=O)[O-])c(C(F)(F)F)c2)C1=O [Nilutamide]", "Measurement name": "fold induction at 50 µM", "Value observed": 1.4}
{"Compound": "NCC1(CC(=O)O)CCCCC1 [Gabapentin]", "Measurement name": "fold induction at 50 µM", "Value observed": 1.6}

Problem: Fill blank: measured fold induction at 50 µM of the compound CCC(=O)OCC(=O)[C@@]1(OC(=O)CC)[C@H](C)C[C@H]2[C@H]3[C@H]([C@@H](O)C[C@@]21C)[C@@]1(C)C=CC(=O)C=C1C[C@H]3Cl [Alclometasone dipropionate] is ____.
Solution: 1.2

Problem: // fold induction at 50 µM lookup, key: O=C1C=C2C=C[C@@H]3C[C@@]2(O1)[C@H]1CCCCN31 [Securinine]
Solution: 1.6

* * *

Entries annotated with measured fold induction at 50 µM
Test system: E. faecium
Assay method text: AK assay 384-well format, Prestwick library screening
Format: cell-based, Enterococcus faecium
Test settings: Enterococcus faecium, 3 h, read-out: AK-based Prestwick Library Screening Results, E. faecium (increase in extracellular AK activity)
Structures can show the parent of a compound that is named as a salt.

Sample answers from the record:
{"Compound": "CN[C@H](CC(C)C)C(=O)N[C@H]1C(=O)N[C@@H](CC(N)=O)C(=O)N[C@H]2C(=O)N[C@H]3C(=O)N[C@H](C(=O)N[C@H](C(=O)O)c4cc(O)cc(O)c4-c4cc3ccc4O)[C@H](O)c3ccc(c(Cl)c3)Oc3cc2cc(c3O[C@@H]2O[C@H](CO)[C@@H](O)[C@H](O)[C@H]2O[C@H]2C[C@](C)(N)[C@H](O)[C@H](C)O2)Oc2ccc(cc2Cl)[C@H]1O [Vancomycin hydrochloride]", "fold induction at 50 µM": 1.5}
{"Compound": "O=C1CC[C@@]2(O)[C@H]3Cc4ccc(O)c5c4[C@@]2(CCN3CC2CC2)[C@H]1O5 [Naltrexone hydrochloride dihydrate]", "fold induction at 50 µM": 1}
{"Compound": "Oc1ccc2c3c1O[C@H]1[C@@H](O)CC[C@@]4(O)[C@@H](C2)N(CC2CCC2)CC[C@]314 [Nalbuphine hydrochloride]", "fold induction at 50 µM": 0.9}

Now look at this one.
Problem: What value of fold induction at 50 µM has been recorded for this entry: "C[C@]12CC[C@@H](O)C[C@@H]1CC[C@@H]1[C@@H]2CC[C@]2(C)C(=O)CC[C@@H]12"
Solution: 1

* * *

Tested on: S. aureus strain USA300-0114
Assay method text: AK assay 384-well format, Prestwick library screening
Format: cell-based, Staphylococcus aureus
Test settings: Staphylococcus aureus, USA300, 3 h; 50 μM final drug concentration; planktonic; cutoff for positive-scoring molecules 3-fold increase; read-out: AK-based Prestwick Library Screening Results, S. aureus (fold increase in extracellular AK activity)
Where a name gives a salt, the structure may show the parent alone.
Label Y when fold induction at 50 µM < 0.7; otherwise N.

# count of solved cases: 3
{"Molecule": "CC(=O)[C@H]1CC[C@H]2[C@@H]3C[C@H](C)C4=CC(=O)CC[C@]4(C)[C@H]3[C@@H](O)C[C@]12C", "Class name": "Y"}
{"Molecule": "CO[C@@]1(NC(=O)Cc2cccs2)C(=O)N2C(C(=O)O)=C(COC(N)=O)CS[C@@H]21 [Cefoxitin sodium salt]", "Class name": "N"}
{"Molecule": "CC(CN1c2ccccc2Sc2ccccc21)N(C)C (centres unmarked) [Promethazine hydrochloride]", "Class name": "Y"}

Problem: Given CCN1CCN(C(=O)N[C@@H](C(=O)N[C@@H]2C(=O)N3[C@@H]2SC(C)(C)[C@@H]3C(=O)O)c2ccccc2)C(=O)C1=O [Piperacillin sodium salt] , is recorded fold induction at 50 µM strictly lower than 0.7?
Solution: Y

Problem: Field: below-cutoff. Rule: recorded fold induction at 50 µM strictly less than 0.7. Subject: CC(O)Cn1cnc2c1c(=O)n(C)c(=O)n2C (centres unmarked)
Solution: Y

Problem: Given the entry Cc1nnc(SCC2=C(C(=O)O)N3C(=O)[C@@H](NC(=O)Cn4cnnn4)[C@H]3SC2)s1 [Cefazolin sodium salt] , would its reported fold induction at 50 µM be below 0.7?
Solution: N

Problem: Answer whether the molecule "Nc1ncnc2c1ncn2[C@@H]1O[C@H](CO)[C@@H](O)[C@@H]1O" has fold induction at 50 µM strictly less than 0.7
Solution: N

Problem: Report whether reported fold induction at 50 µM is lower than 0.7 (strictly) for CO[C@@]1(NC(=O)C(C(=O)O)c2ccc(O)cc2)C(=O)N2C(C(=O)O)=C(CSc3nnnn3C)CO[C@@H]21 (some centres unmarked) [Moxalactam disodium salt]
Solution: N

Problem: In the record for CC(C)[N+](C)(CCOC(=O)C1c2ccccc2Oc2ccccc21)C(C)C [Propantheline bromide] , is fold induction at 50 µM less than 0.7?
Solution: N

Problem: Please state whether fold induction at 50 µM is below 0.7 for COc1c(O)cc2c(c1O)[C@@H]1O[C@H](CO)[C@@H](O)[C@H](O)[C@H]1OC2=O [Bergenin monohydrate]
Solution: N

* * *

System: E. coli
Assay method text: AK assay 384-well format, Prestwick library screening
Assay type: cell-based, Escherichia coli
Test settings: Escherichia coli, 3 h, 50 μM final drug concentration; 384-well format; […]; read-out: AK-based Prestwick Library Screening Results, E. coli (increase in extracellular AK activity)
Counter-ions that a name gives are not always drawn.
Measurement name: fold induction at 50 µM

Sample answers from the record:
{"Compound": "C1CCc2nnnn2CC1", "Value observed": 0.6}
{"Compound": "O=C(O)c1cc(-c2ccc(F)cc2F)ccc1O", "Value observed": 0.7}
{"Compound": "C=C[C@H]1C[N@@]2CC[C@H]1C[C@@H]2[C@@H](O)c1ccnc2ccc(OC)cc12 [Quinidine hydrochloride monohydrate]", "Value observed": 1}
{"Compound": "OC(c1ccccc1)(c1ccccc1)C1CCNCC1", "Value observed": 0.6}
{"Compound": "CC[N+](C)(C)c1cccc(O)c1 [Edrophonium chloride]", "Value observed": 0.4}

Problem: Recorded fold induction at 50 µM for "CCN(CC)C(=S)SSC(=S)N(CC)CC" , please?
Solution: 0.9

* * *

Tested on: P. aeruginosa
Assay method text: AK assay 384-well format, Prestwick library screening
Assay type: cell-based, Pseudomonas aeruginosa
Test settings: Pseudomonas aeruginosa, 3 h, planktonic P. aeruginosa; 50 μM final drug concentration; […]; read-out: AK-based Prestwick Library Screening Results, P. aeruginosa (increase in extracellular AK activity)
Measurement name: fold induction at 50 µM

Look over these answered cases.
{"Molecule": "CN1C(=O)CCS(=O)(=O)C1c1ccc(Cl)cc1 (stereo not drawn) [Chlormezanone]", "Value observed": 0.6}
{"Molecule": "CCCC(C)(COC(N)=O)COC(=O)NC(C)C (stereo not drawn) [Carisoprodol]", "Value observed": 0.9}
{"Molecule": "C[C@H]1O[C@@H](O[C@H]2[C@@H](O)C[C@H](O[C@H]3[C@@H](O)C[C@H](O[C@H]4CC[C@@]5(C)[C@H](CC[C@@H]6[C@@H]5C[C@@H](O)[C@]5(C)[C@@H](C7=CC(=O)OC7)CC[C@]65O)C4)O[C@@H]3C)O[C@@H]2C)C[C@H](O)[C@@H]1O [Digoxin]", "Value observed": 0.8}
{"Molecule": "C=C1C/C(=C/C)C(=O)O[C@@H]2CCN3CC=C(COC(=O)[C@]1(C)O)[C@H]23 [Seneciphylline]", "Value observed": 0.8}

Problem: Item under review: COc1cc2c(c(OC)c1OC)-c1ccc(O)c(=O)cc1C(N)CC2 (stereo not drawn) [Trimethylcolchicinic acid] . Reported fold induction at 50 µM?
Solution: 0.7
